These measurements were taken from ChEMBL document CHEMBL3232786.

Target: Cannabinoid receptor 2 (Homo sapiens, UniProt P34972)
Sequence (P34972 whole entry): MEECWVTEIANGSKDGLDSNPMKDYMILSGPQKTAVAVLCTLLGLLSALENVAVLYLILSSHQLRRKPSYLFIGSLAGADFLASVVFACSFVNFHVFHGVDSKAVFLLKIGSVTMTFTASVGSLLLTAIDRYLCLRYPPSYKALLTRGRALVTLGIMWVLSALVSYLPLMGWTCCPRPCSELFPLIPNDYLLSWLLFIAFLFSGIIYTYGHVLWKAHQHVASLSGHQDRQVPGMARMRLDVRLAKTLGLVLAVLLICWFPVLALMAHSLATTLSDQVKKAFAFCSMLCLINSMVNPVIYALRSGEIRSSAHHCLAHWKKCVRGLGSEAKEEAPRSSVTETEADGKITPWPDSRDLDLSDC
Assay: Binding affinity to CB2 receptor (unknown origin)
measured_property: pKi
A value of pKi is the negative decimal logarithm of a concentration given in moles per litre.

• COc1cccc2c(C(=O)N[C@@H]3C(C)(C)[C@@H]4CC[C@@]3(C)C4)nn(CCN3CCOCC3)c12 = 8.70
• COc1cccc2c(C(=O)N[C@@H]3C(C)(C)[C@@H]4CC[C@@]3(C)C4)cn(CCN3CCOCC3)c12 = 7.96

Input line: Param readout = pKi; param system = Cannabinoid receptor 2 (Homo sapiens, UniProt P34972); param query = Cc1ccc2c(c1)Cc1c(C(=O)NN3CCCCC3)nn(-c3ccc(Cl)cc3Cl)c1-2 ; response: value
Output line: 10.43
